Hello, the source for this data is the supplement of paper PMC7877785, in case you need it.

assayOverview: self-splicing fitness, log relative to wild type (ln ratio); higher = more splicing; Tetrahymena group I intron in knt gene, E. coli kanamycin selection, DiMSum; sequences stand for … in CUCUCU…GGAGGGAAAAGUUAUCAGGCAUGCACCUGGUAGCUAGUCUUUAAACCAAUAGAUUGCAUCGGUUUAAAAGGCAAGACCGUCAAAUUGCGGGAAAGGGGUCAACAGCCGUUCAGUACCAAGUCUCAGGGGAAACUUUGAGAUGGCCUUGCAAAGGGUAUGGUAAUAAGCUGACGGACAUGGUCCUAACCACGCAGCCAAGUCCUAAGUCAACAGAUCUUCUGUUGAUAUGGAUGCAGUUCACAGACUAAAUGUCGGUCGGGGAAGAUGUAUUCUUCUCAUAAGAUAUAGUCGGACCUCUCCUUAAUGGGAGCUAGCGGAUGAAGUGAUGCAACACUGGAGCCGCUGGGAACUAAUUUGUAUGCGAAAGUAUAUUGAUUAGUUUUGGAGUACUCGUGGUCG;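 note: selection with 25 µg/mL kanamycin versus none on LB agar overnight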
runParameters: 37 °C

[
  {
    "chain": "GGCGAGCAAUAUUACGCGGA",
    "self-splicing fitness (ln)": -0.458
  },
  {
    "chain": "UAUCAGCAAUAUUACGGAAA",
    "self-splicing fitness (ln)": -0.253
  },
  {
    "chain": "CAUGAGCAAUAUUACGGCUU",
    "self-splicing fitness (ln)": -2.92
  },
  {
    "chain": "UUCUAGCAAUAUUACGUUUU",
    "self-splicing fitness (ln)": -2.92
  },
  {
    "chain": "AUCUAGCAAUAUUACGCUUU",
    "self-splicing fitness (ln)": -0.151
  },
  {
    "chain": "AACCAGCAAUAUUACGCGCG",
    "self-splicing fitness (ln)": 0.256
  },
  {
    "chain": "GUGAAGCAAUAUUACGCGGG",
    "self-splicing fitness (ln)": -1.55
  },
  {
    "chain": "CUGCAGCAAUAUUACGUUGU",
    "self-splicing fitness (ln)": -2.54
  },
  {
    "chain": "UUGAAGCAAUAUUACGUAAU",
    "self-splicing fitness (ln)": -1.06
  },
  {
    "chain": "AGCUAGCAAUAUUACGACAC",
    "self-splicing fitness (ln)": -1.11
  },
  {
    "chain": "AGAAAGCAAUAUUACGCCCA",
    "self-splicing fitness (ln)": 0.167
  },
  {
    "chain": "AGCAAGCAAUAUUACGCCCC",
    "self-splicing fitness (ln)": -0.728
  },
  {
    "chain": "GUGGAGCAAUAUUACGCAUU",
    "self-splicing fitness (ln)": -1.14
  },
  {
    "chain": "GACGAGCAAUAUUACGACAU",
    "self-splicing fitness (ln)": -1.99
  },
  {
    "chain": "CGUGAGCAAUAUUACGAUCU",
    "self-splicing fitness (ln)": -0.995
  },
  {
    "chain": "UACGAGCAAUAUUACGCGAG",
    "self-splicing fitness (ln)": -0.597
  }
]
